# Tested on: cerebral oxidative stress induced in mice by doxorubicin
# PROTOCOL SUMMARY: In vivo assay of cerebral oxidative stress induced in mice by doxorubicin
# MEASUREMENT SETUP: % variation relative to the vehicle, healthy animals, 50 mg/kg IP x3 days (D = doxorubicin alone)
PROPERTY NAME: Prot. Ox/pr (%)
Supply the numeric figure in %, leaving out any unit text.

A selection of reference data follows.
CC1(C)CC(=O)C=C(N(O)Cc2ccccn2)C1 [(5)] ... -5.5
COc1cccc2c1C(=O)c1c(O)c3c(c(O)c1C2=O)C[C@@](O)(C(=O)CO)C[C@@H]3O[C@H]1C[C@H](N)[C@H](O)[C@H](C)O1 [D, doxorubicin, reference compound] ... 17.2
CC1(C)CC(=O)C=C(NCCN2CCCCC2)C1 [(1)] ... 1.4
CC1=NN(c2ccccc2)C(=O)C1 [edaravone, reference compound] ... -2.3
CC1(C)CC(=O)C=C(NN2CCCCC2)C1 [(6)] ... -5.6

Exercise: Using the record for CC1(C)CC(=O)C=C(N(O)Cc2cccnc2)C1 [(4)] , report its Prot. Ox/pr.
Solution: -10.3

Exercise: # iterate: O=C1C=C(NCCN2CCCCC2)CC(c2ccccc2)C1 (stereo not shown) [(3)]
Solution: -7.8

----------
# Test system: cerebral oxidative stress induced in mice by doxorubicin
# PROTOCOL SUMMARY: In vivo assay of cerebral oxidative stress induced in mice by doxorubicin
# MEASUREMENT SETUP: % variation relative to the vehicle, healthy animals, 50 mg/kg IP x3 days (D = doxorubicin alone)
Form field: GST/pr (one value per entry).
// note: answer is a bare numeric in %

Solved entries:
CC1(C)CC(=O)C=C(N(O)Cc2cccnc2)C1 ... 0.5
CC1(C)CC(=O)C=C(NCCN2CCCCC2)C1 ... -2.3
CC1(C)CC(=O)C=C(NN2CCCCC2)C1 ... -2.5
COc1cccc2c1C(=O)c1c(O)c3c(c(O)c1C2=O)C[C@@](O)(C(=O)CO)C[C@@H]3O[C@H]1C[C@H](N)[C@H](O)[C@H](C)O1 [D, doxorubicin, reference compound] ... -9.1

Exercise: Look up GST/pr with cerebral oxidative stress induced in mice by doxorubicin for this compound: `CC1(C)CC(=O)C=C(N(O)Cc2ccccn2)C1`
Solution: 3.1

Exercise: Now this one: CC1=NN(c2ccccc2)C(=O)C1 [edaravone, reference compound]
Solution: -3.1

Exercise: What about this compound? O=C1C=C(NCCN2CCCCC2)CC(c2ccccc2)C1 (stereo not shown)
Solution: 4.1

----------
# PROTOCOL SUMMARY: pH at the semi-neutralization point of titration (pKa)
# Assay type: physicochemical
# MEASUREMENT SETUP: titration with 0.1 N NaOH or HCl; read-out: Acid dissociation constant: pKa
PROPERTY NAME: pKa
Number only, no unit.

CC1(C)CC(=O)C=C(NN2CCCCC2)C1 ... 2.62
CC1(C)CC(=O)C=C(N(O)Cc2ccccn2)C1 ... 4.2

Here's the next entry for you.
Exercise: Data request, read-out pKa, for `CC1(C)CC(=O)C=C(NN2CCOCC2)C1`
Solution: 2.94

----------
# System: cerebral oxidative stress induced in mice by doxorubicin
# PROTOCOL SUMMARY: In vivo assay of cerebral oxidative stress induced in mice by doxorubicin
# MEASUREMENT SETUP: % inhibition relative to variation due to doxorubicin alone, oxidized animals, as function of vehicle
GPX/pr vehicle listing for selected compounds.
The response must be a number in % with no trailing unit.

CC1(C)CC(=O)C=C(NN2CCCCC2)C1 ... -34.3
CC1(C)CC(=O)C=C(N(O)Cc2cccnc2)C1 ... -8.1
O=C1C=C(NCCN2CCCCC2)CC(c2ccccc2)C1 (stereo not shown) ... -20.2

Exercise: Given `CC1(C)CC(=O)C=C(NCCN2CCCCC2)C1` , state its recorded GPX/pr vehicle.
Solution: 22.2

----------
# System: cerebral oxidative stress induced in mice by doxorubicin
# PROTOCOL SUMMARY: In vivo assay of cerebral oxidative stress induced in mice by doxorubicin
# MEASUREMENT SETUP: % variation relative to the vehicle, healthy animals, 50 mg/kg IP x3 days (D = doxorubicin alone)
PROPERTY NAME: GSH/pr (%)
Give the value in % but do not write % after it.

Example entries begin here.
O=C1C=C(NCCN2CCCCC2)CC(c2ccccc2)C1 (stereo not shown) ... 0.4
COc1cccc2c1C(=O)c1c(O)c3c(c(O)c1C2=O)C[C@@](O)(C(=O)CO)C[C@@H]3O[C@H]1C[C@H](N)[C@H](O)[C@H](C)O1 [D, doxorubicin, reference compound] ... -12.5
CC1(C)CC(=O)C=C(N(O)Cc2ccccn2)C1 ... -0.9
CC1=NN(c2ccccc2)C(=O)C1 [edaravone, reference compound] ... -5.5
CC1(C)CC(=O)C=C(NN2CCCCC2)C1 ... -9.6

Exercise: Sample `CC1(C)CC(=O)C=C(N(O)Cc2cccnc2)C1` — what was its GSH/pr?
Solution: -0.2

Exercise: And `CC1(C)CC(=O)C=C(NCCN2CCCCC2)C1` ?
Solution: -1.5

Just for reference, patent EP2371816A1 is where these values come from.
